- System: human Neural Stem Cells (hNSCs)
- EXPERIMENTAL PROTOCOL: Phase contrast imaging of hNSC morphology on scaffolds
- Format: cell-based
- EXPERIMENTAL SETUP: 7 days in vitro
The star is where a group is joined. Biotin = O=C1N[C@H]2[C@H](CS[C@H]2CCCCC(=O)*)N1

SUBSTANCE | cell morphology / degree of spreading
Biot-GGGPFSSTKT-CONH2 (Biotin-GGGPFSSTKT-NH2; SMILES C[C@@H](O)[C@H](NC(=O)[C@H](CCCCN)NC(=O)[C@@H](NC(=O)[C@H](CO)NC(=O)[C@H](CO)NC(=O)[C@H](Cc1ccccc1)NC(=O)[C@@H]1CCCN1C(=O)CNC(=O)CNC(=O)CNC(=O)CCCC[C@@H]1SC[C@@H]2NC(=O)N[C@@H]21)[C@@H](C)O)C(N)=O) [peptide B3] | branched cells
Biot-GGGAFSSTKT-CONH2 (Biotin-GGGAFSSTKT-NH2; SMILES C[C@H](NC(=O)CNC(=O)CNC(=O)CNC(=O)CCCC[C@@H]1SC[C@@H]2NC(=O)N[C@@H]21)C(=O)N[C@@H](Cc1ccccc1)C(=O)N[C@@H](CO)C(=O)N[C@@H](CO)C(=O)N[C@H](C(=O)N[C@@H](CCCCN)C(=O)N[C@H](C(N)=O)[C@@H](C)O)[C@@H](C)O) [B15] | branched cells
Ac-WGGGAFSSTKT-CONH2 (Ac-WGGGAFSSTKT-NH2) [peptide 31] | branched cells
